- System: K4 kissing-loop RNA reporter;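 further: bound reporter read as fluorescence of individual clusters on recovered sequencing chips by microscopy, with normalized cluster intensities fitted with a binding model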
- test details: apparent KD of K4 kissing-loop reporter; higher = weaker reporter binding
- condition label: Eterna round: R107; input ligand: theophylline 20 uM
Listing of entries alongside the reported apparent KD of K4 kissing-loop reporter.

| seq text | apparent KD of K4 kissing-loop reporter, nM |
| --- | --- |
| UGUACUCUGAAAGGAUAUGUGAGCCCUUUUUGUUAGUGAUGUUGACACGGAAACACCAUCAGACUUACAGAAGGUUCGUUGGGUA [theeternabot_sameState_KL_FMN_B_17] | 286 |
| AGUACAACUGCGGCCGCCACUCAACGCAGAUCAAAGAUCUGCAUUCACUCAGUGAUGUUGAGUGAGAGGACCGGGCAGUUGUACA [Omei KL Tryp B SS B v3] | 645 |
| AUUCGUUUAUGUGAUACCAGACUUUGCAGUGAUGUUGCAUUAAUUUUUGAUUAUUAGUUUGUCCCUUGGCAGCACUAUUUAUUUA [JR_SSTheophyB_Sub004] | 80.1 |
| AGAGAUAUAUGAGGAUAUGGGAUAGUUAAUGAGUUAGUUUUAGUGUUGUUUGGUUAGUGAUGUUAUUUAGAAGGCGUGAGUGAUG [rxxvgmullin] | 109 |
| GUAGACGUACCUUCAGUGAUGUUGAAGGAUACCAGAUGUUAUCACAUCCCUUGGCAGCCUUGGGAUAACAGUGAGUCGGAAUAUG [Essoaran] | 159 |
| UUUGUAUAGGGAAGGAGCGUGAAUGAUAAUGAAUAUAGUGAUGUUAUAUAUAAGAAAGAAUCACAGGUAGGUCGCCCGGAUGAGG [SSArgB.K] | 855 |
| AACACUCUGGGAGUGAUGUUCUCAAAUAACCGAGGACCGGUACGGCCGCCACUCGGAAAAGAGUGAGUCCUACGAAAAGUAGGAC [Omei inspired 3] | 264 |
| GCCUUUGUACAGUCCGUUUGUCAUGUGGAUACCAGCAGGAUAGCUUGCCCUUGGCAGCCAUCCAUUUAAUGUAGUGAUGUUACGC [theeternabot_exclusion_KL_Theo_A_13] | 412 |
| AGUUCUUGCCGAAGGAGCGAGGCAGAGUGAUGUUCUGCACGAGGUCGAAAGACCUCGCUGCCUCAGGUAGGUCGCGGCAUGAACA [Omei KL Arginine B Exc A v2] | 614 |
| GGAUAGGACAGAGGAUAUGGUAGUGAUGUUACCAAACUGGUUAUUAAUGUCAGAAAACUGGCAAAUCCAGAAGGCUGUCCUAUCG [KL-XFMN-B13] | 60.5 |
| GCGCGCGGCGGAGGAUAUAGCAGGUGAUCCGAGAAAGUGAGUGAUGUUUACGGAGAUGAUGAUAUGUUAGAAGGCCGCCGCGCGC [abcdefghijklmnopqrstuv] | 425 |
| UCACGUGCCAGUGAUGUUGGCGUACGUGAUACCAGACGAAUAAAAGUCCCUUGGCAGCACAAAUAUGCCAAGUUAGAUGUAUGAU [Exclusion Theophylline A GF 2] | 116 |
